Quick reference for normalized growth among some compounds
Assay: chemical genetic growth profiling, strain panel (AID 1159580);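 also: tested at 20 µM; growth read once vehicle control cultures reached saturation at 30 °C; 1 = growth at the plate median or of vehicle wells; lower values mean less growth of the strain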
Conditions: S. cerevisiae deletion strains, growth OD, locus YEL061C, strain CIN8, active compounds read low
The whole screen tested about 5,500 compounds, of which about 2,000 (36%) were called active. Another 18% or so got no clear call; they are omitted. The list shows a part of the results.

COMPOUND	normalized growth
CCOC(=O)c1sc(-c2ccc(C)cc2)nc1O	0.583
CC(C)(C)c1ccc(-c2n[nH]c(=S)n2-c2cccc(C(F)(F)F)c2)cc1	0.972
N#CC(O[C@@H]1O[C@H](CO[C@@H]2O[C@H](CO)[C@@H](O)[C@H](O)[C@H]2O)[C@@H](O)[C@H](O)[C@H]1O)c1ccccc1 (stereo partly specified)	1
CCOC(=O)c1nc(-c2ccccc2)sc1C(=O)OCC	0.958
C/C=C1\[C@H]2C=C(C)C[C@]1(N)c1ccc(=O)[nH]c1C2	1.01
CCOC(=O)c1ccc2[nH]c(-c3ccccc3)cc(=O)c2c1	1.01
